Attribution: patent US9663473B2

Biological target: recombinant human ALX receptor (Homo sapiens, UniProt P25090)
Sequence (P25090 1-351): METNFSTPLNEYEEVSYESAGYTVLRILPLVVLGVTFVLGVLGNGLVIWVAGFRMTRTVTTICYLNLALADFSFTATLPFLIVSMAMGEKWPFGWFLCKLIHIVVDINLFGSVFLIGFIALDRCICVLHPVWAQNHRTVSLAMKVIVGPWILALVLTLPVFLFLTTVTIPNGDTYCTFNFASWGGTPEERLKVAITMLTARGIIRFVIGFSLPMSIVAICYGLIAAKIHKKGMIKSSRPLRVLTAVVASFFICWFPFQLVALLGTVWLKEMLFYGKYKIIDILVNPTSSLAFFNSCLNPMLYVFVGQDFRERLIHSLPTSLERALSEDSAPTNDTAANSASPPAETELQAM
Assay: Intracellular calcium measurements (FLIPR), ALX receptor agonistic activity
Conditions: HEK293-hALXR-Gα16 cells, Fluo-4 calcium signal, normalized to WKYMVm 10 nM
Would you kindly list EC50 for each of these compounds?

# compound, test system, measured attribute, recorded result
rows = [
    ("COc1ccc(C[C@@H](NC(=O)NCCc2ccc(Cl)cc2)c2nc3ccccc3[nH]2)cc1 [Example 302]", "recombinant human ALX receptor (Homo sapiens, UniProt P25090)", "EC50", "129 nM"),
]

Give one value of EC50 per listed compound.
1. COc1ccc(C[C@@H](NC(=O)N[C@H]2CC[C@H](O)CC2)c2nc3cc(F)ccc3[nH]2)cc1 [Example 85]
2. COc1ccc(C[C@@H](NC(=O)N[C@@H]2CCC[C@@H]2O)c2nc3ccccc3[nH]2)cc1 [Example 21]
3. COc1ccc(CC(NC(=O)N[C@H]2CC[C@H](O)CC2)c2nc3ccc(F)cc3[nH]2)cc1F (single isomer, unassigned; ent-1) [Example 318]
4. COc1ccc(C[C@@H](NC(=O)NCCC#N)c2nc3ccccc3[nH]2)cc1 [Example 69]
5. COc1ccc(C[C@@H](NC(=O)N[C@@H]2CCCC[C@@H]2O)c2nc3ccccc3[nH]2)cc1 (relative stereo) [Example 145]
6. COc1ccc(C[C@@H](NC(=O)NC2COCc3ccccc32)c2nc3ccccc3[nH]2)cc1 (stereo partly shown) [Example 218]

1.6 nM
29 nM
1.2 nM
637 nM
62 nM
34 nM
